system: TK-10 renal; experiment: NCI-60 one-dose screen, 48 h; settings: 10 µM unless noted
This is part of a sample that, as a whole, favours compounds with a hit. Of some 83,000 tested, about 20% had one in any assay. Activity calls are given as the source filed them. Rule for the calls: active = growth percent below 10; inactive = the rest.
A correct response names exactly one class from label 1 = active, label 0 = inactive

Query: For this molecule, state the assay outcome: `COC(=O)Nc1ccc(NC(=O)OC)cc1`
Reply: label 0

Query: For this molecule, state the assay outcome: `C[C@]12C[C@H]1CC[C@]1(C)[C@@H]2CC[C@@]23C[C@H](CC[C@H]21)[C@@](O)(CO)C3`
Reply: label 0

Query: For this molecule, state the assay outcome: Fc1ccc(C2CC(c3cccc(Nc4ccncc4)c3)=NN2c2ccc(Cl)cc2)cc1 (centres undefined)
Reply: label 0

Query: For this molecule, state the assay outcome: `CN(C)CCCn1c2c(c3ccc(-c4ccn[nH]4)cc3c1=O)C(=O)c1ccccc1-2`
Reply: label 0

Query: For this molecule, state the assay outcome: `COc1ccc(CNCCN2C(=O)c3ccc4c5c(ccc(c35)C2=O)C(=O)N(CCNCc2ccc(OC)cc2)C4=O)cc1`
Reply: label 1

Query: For this molecule, state the assay outcome: `COc1ccc(C(=O)c2cc3c(N)c(C(=O)Nc4cccc(Cl)c4C)sc3nc2C)cc1`
Reply: label 0

Query: For this molecule, state the assay outcome: `COc1ccc(Nn2c(SCC(=O)Nc3nc(-c4ccc(Cl)cc4)cs3)nc(C)c2C)cc1`
Reply: label 0

Query: For this molecule, state the assay outcome: `Cc1c(C2=CCCCC2)c2ccccn2c1C(=O)c1cccc(S(=O)(=O)N2CCOCC2)c1`
Reply: label 0

Query: For this molecule, state the assay outcome: `O=S(=O)(NCCNc1nccc(-c2c(-c3cccc(F)c3)nc3occn23)n1)c1cccc2ccccc12`
Reply: label 0

Query: For this molecule, state the assay outcome: `COc1ccc(-c2nc(SC)nc(N3CCOCC3)c2C#N)cc1`
Reply: label 0

Query: For this molecule, state the assay outcome: CCC(C)C(N)C(=O)NNc1n[nH]c(=S)n1N (centres undefined)
Reply: label 0

Query: For this molecule, state the assay outcome: `CC1(C)NCCC[C@]2(C)[C@H]3CC=C4[C@@H]5C[C@@](C)(CO)CC[C@]5(C)CC[C@@]4(C)[C@]3(C)CC[C@@H]12`
Reply: label 0

Query: For this molecule, state the assay outcome: `COc1cc2oc(-c3cccc(C(=O)Nc4ccc(Cl)cc4)c3)cc(=O)c2c(OC)c1OC`
Reply: label 0

Query: For this molecule, state the assay outcome: `CC(=O)O[C@H]1CC[C@@]2(C)[C@@H](CC[C@@H]3[C@@H]2CC[C@@]2(C)[C@H]3CC[C@]2(O)C(C)=O)C1`
Reply: label 0

Query: For this molecule, state the assay outcome: CC1(c2ccccc2)NC(=O)N(CC(=O)Nc2cccc(I)c2)C1=O (centres undefined)
Reply: label 0

Query: For this molecule, state the assay outcome: `CN1CCN(C(=O)OCc2nc3c(N4CCOCC4)nc(-c4ccccc4)nc3n2C)CC1`
Reply: label 1

Query: For this molecule, state the assay outcome: N#CSCC1CC(O)(c2ccccc2)C(c2ccccc2)C(c2ccc(F)cc2)O1 (centres undefined)
Reply: label 1

Query: For this molecule, state the assay outcome: `O=C(/C=C\c1ccc(OCCCCCC[P+](c2ccccc2)(c2ccccc2)c2ccccc2)cc1)c1ccc2c(c1)OCCO2`
Reply: label 1

Query: For this molecule, state the assay outcome: `CCN(CC)CCOC(COc1cc(C)cc(C)c1)COc1cc(C)cc(C)c1`
Reply: label 0

Query: For this molecule, state the assay outcome: COc1ccc(C2CC(c3cccc(Nc4ccncc4)c3)=NN2c2cc(Cl)cc(Cl)c2)cc1 (centres undefined)
Reply: label 0

Query: For this molecule, state the assay outcome: `COc1ccc(NS(=O)(=O)c2ccc(C)cc2)c([N+](=O)[O-])c1`
Reply: label 0

Query: For this molecule, state the assay outcome: `O=S(=O)(NCCCNc1nccc(-c2c(-c3cccc(O)c3)nc3occn23)n1)c1ccc(Br)cc1`
Reply: label 0

Query: For this molecule, state the assay outcome: `COc1cc(NCCCN(CC(C)C)CC(C)C)c2ncccc2c1`
Reply: label 0

Query: For this molecule, state the assay outcome: `COc1ccc(-c2ncc(-c3ccccc3)[nH]2)cc1OC`
Reply: label 0

Query: For this molecule, state the assay outcome: `Fc1ccc(-n2cc(COc3ncnc4sc5c(c34)CCCC5)nn2)cc1Cl`
Reply: label 0

Query: For this molecule, state the assay outcome: `CN1CCN(CCCOc2ccc3ncnc(Nc4ccc(Oc5cccc(C(F)(F)F)c5)c(Cl)c4)c3c2)CC1`
Reply: label 0

Query: For this molecule, state the assay outcome: `COc1ccc(CC(C)=C(c2ccc(OCCN(C)C)cc2)c2ccc(OCCN(C)C)cc2)cc1`
Reply: label 0

Query: For this molecule, state the assay outcome: O=C1CCC(NC(=S)Nc2ccccc2)N1 (centres undefined)
Reply: label 0

Query: For this molecule, state the assay outcome: CC(C)Cc1ccc(C(C)C(=O)NCc2ccc(Cn3c(=O)sn(-c4ccc(Cl)cc4)c3=O)cc2)cc1 (centres undefined)
Reply: label 0

Query: For this molecule, state the assay outcome: `O=C1Nc2ccccc2/C1=C\c1cccc(/C=C2/C(=O)Nc3ccccc32)n1`
Reply: label 1

Query: For this molecule, state the assay outcome: `COc1cccc(CNCCN2C(=O)c3ccc4c5c(ccc(c35)C2=O)C(=O)N(CCNCc2cccc(OC)c2)C4=O)c1`
Reply: label 0

Query: For this molecule, state the assay outcome: `O=c1[nH]nc(-c2ccc(Br)cc2)cc1Cc1ccc(O)cc1`
Reply: label 0

Query: For this molecule, state the assay outcome: `Fc1ccc2nc3c(cc2c1)CSc1nnc(-c2ccc[nH]c2=S)n1N3`
Reply: label 0

Query: For this molecule, state the assay outcome: `CCc1c(Nc2ccc(C)cc2)[nH]c(N)nc1=S`
Reply: label 0

Query: For this molecule, state the assay outcome: `NNC(=O)/C(=C\c1ccc([N+](=O)[O-])cc1)CC(=O)c1ccc(Cl)c(Cl)c1`
Reply: label 0

Query: For this molecule, state the assay outcome: `COc1cccc(CCC(=O)c2cc3c(N)c(C(=O)Nc4cccc(Cl)c4C)sc3nc2C)c1`
Reply: label 0

Query: For this molecule, state the assay outcome: `CCN(CC)S(=O)(=O)c1cccc([N+](=O)[O-])c1`
Reply: label 0

Query: For this molecule, state the assay outcome: `COc1ccc(NC(=O)c2sc3nc(C)c(C(=O)c4ccc(OC)cc4)cc3c2N)cc1`
Reply: label 0

Query: For this molecule, state the assay outcome: COc1ccccc1C(C[N+](=O)[O-])c1c(-c2ccccc2)[nH]c2cc(C)ccc12 (centres undefined)
Reply: label 0

====

system: SW-620 colon; assay: NCI-60 one-dose screen, 48 h; conditions: 10 µM unless noted
The panel holds about 83,000 compounds, 20% with a hit somewhere; the sample as a whole holds those more often. The source made the active and inactive calls. Rule for the calls: active = growth percent below 10; inactive = the rest.
A correct response names exactly one class from active, inactive

Query: For this molecule, state the assay outcome: `COc1cc2ncnc(Nc3ccc(C(=O)/C=C/c4ccc(C(F)(F)F)cc4F)cc3)c2cc1OC`
Reply: inactive

Query: For this molecule, state the assay outcome: `Cc1nccc2c3ccc(OCc4cn(-c5ccc(Cl)cc5)nn4)cc3n(CCCc3ccccc3)c12`
Reply: inactive

Query: For this molecule, state the assay outcome: `O=C(Nc1nc(-c2ccccc2Cl)cs1)c1cc(-c2ccccc2)nc2ccc(Cl)cc12`
Reply: inactive

Query: For this molecule, state the assay outcome: `CCCCCCOc1ccc(/C=N/Nc2cc(C)nc3ccc(Br)cc23)cc1`
Reply: active

Query: For this molecule, state the assay outcome: `O=S(=O)(O)c1cc(O)c2c(N=Nc3ccc(Nc4ccccc4)c4c(S(=O)(=O)O)cccc34)cc(S(=O)(=O)O)cc2c1`
Reply: inactive

Query: For this molecule, state the assay outcome: `Clc1nc(Nc2ccccc2)nc(Nc2ccccc2)n1`
Reply: inactive

Query: For this molecule, state the assay outcome: `Cc1cc2nc(-c3ccccc3)c(-c3ccccc3)nc2cc1C`
Reply: inactive

Query: For this molecule, state the assay outcome: `O=C(O)/C=C\C(=O)N1C/C(=C\c2ccccc2Cl)C(=O)/C(=C/c2ccccc2Cl)C1`
Reply: active

Query: For this molecule, state the assay outcome: `O=C(N/N=C/c1ccc(F)cc1)c1ccccc1Nc1cccc(C(F)(F)F)c1`
Reply: inactive

Query: For this molecule, state the assay outcome: `C(=N\Nc1ncc(-c2cc3cc4c(cc3o2)OCO4)s1)/c1c[nH]c2ccccc12`
Reply: active

====

tested on: SNB-19 CNS; assay: NCI-60 one-dose screen, 48 h (100 = growth as untreated, 0 = no growth, -100 = all killed); conditions: 10 µM unless noted
The panel holds about 83,000 compounds, 20% with a hit somewhere; the sample as a whole holds those more often.
Observation type: growth (%)
Response body: numeric value in %, unit text excluded.

Query: Entry CC(=O)N1c2ccccc2NC2=C(C(=O)N(Cc3ccccc3)C2(C)C)C1c1ccco1 (configuration not stated) needs its growth filled in; supply it.
Reply: 23.6

Query: Entry `O=c1nc2n(nc1/C=C/c1ccco1)CC(c1ccc(Cl)cc1)=NN2` needs its growth filled in; supply it.
Reply: 96.5

Query: Entry `CC[C@H](C)[C@@H]1NC(=O)[C@H](Cc2ccc(O)cc2)N(C)C(=O)[C@H](Cc2ccccc2)NC(=O)CN(C)C(=O)[C@@H]2CCCN2C(=O)[C@@H](Cc2ccccc2)N(C)C(=O)[C@H](CC(C)C)NC1=O` needs its growth filled in; supply it.
Reply: -8.3

Query: Entry COc1ccccc1/C=N/NC1=NC2C(N1)N(C)C(=O)N2C (configuration not stated) needs its growth filled in; supply it.
Reply: 104

Query: Entry `CN1CCN(CC#CCNC(=O)[C@]23CCC(C)(C)C[C@H]2C2=CC[C@@H]4[C@@]5(C)Cc6c([nH]c7ccccc67)C(C)(C)[C@@H]5CC[C@@]4(C)[C@]2(C)CC3)CC1` needs its growth filled in; supply it.
Reply: 79.3

Query: Entry `CCOC(=O)Oc1c(OC)cc(C(=O)O[C@@H]2C[C@@H]3CN4CCc5c([nH]c6cc(OC)ccc56)[C@H]4C[C@@H]3[C@H](C(=O)OC)[C@H]2OC)cc1OC` needs its growth filled in; supply it.
Reply: 75.5

Query: Entry CC(=O)N1c2ccccc2NC2=C(C(=O)N(C)C2(C)C)C1C (configuration not stated) needs its growth filled in; supply it.
Reply: 39.9
